System Tested: T1, 5-Helix (HIV-1 group M subtype B, HXB2 (gp41 …, stabilised))
T1 construct: also called designed protein based on HIV-1 gp41
Protocol Summary: ELISA; competitive phage ELISA, on-phage bivalent scFv: binding to immobilised 5-Helix inhibited by free 5-Helix or free 6-Helix-Fd (concentrations for the trimer); apparent
Conditions: one partner purified
Entries and their IC50
Write it as a number; the unit nM goes unstated.

// known answers, use as guide
Binder	IC50 (nM)
25A12 bivalent scFv on phage (scFv, V domains shown) VH: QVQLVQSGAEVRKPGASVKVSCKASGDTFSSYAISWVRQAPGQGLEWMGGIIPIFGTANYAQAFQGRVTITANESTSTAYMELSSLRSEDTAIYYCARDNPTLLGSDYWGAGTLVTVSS VL: DIQMTQSPSTLSASIGDRVTITCRASEGIHRYLAWYQQKPGKAPKLLIYHASRLASGAPSRFSGSGSGTDFTLTISSLQPDDFATYYCQQRANYPYTFGGGTKLEIK	2.2
25F1 bivalent scFv on phage (scFv, V domains shown) VH: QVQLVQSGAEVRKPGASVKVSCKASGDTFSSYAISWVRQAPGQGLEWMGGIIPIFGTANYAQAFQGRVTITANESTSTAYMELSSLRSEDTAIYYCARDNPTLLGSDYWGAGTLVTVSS VL: DIQMTQSPSTLSASIGDRVTITCRASEGINNSLAWYQQKPGKAPKLLISRASRLASGAPSRFSGSGSGTDFTLTISSLQPDDFATYYCQQYSSTPHTFGGGTKLEIK	0.9

Assign IC50 to the following record: 25C10 bivalent scFv on phage (scFv, V domains shown) VH: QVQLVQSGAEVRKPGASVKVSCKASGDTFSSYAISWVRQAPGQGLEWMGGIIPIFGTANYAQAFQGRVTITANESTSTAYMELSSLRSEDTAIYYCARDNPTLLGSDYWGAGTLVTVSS VL: DIQMTQSPSTLSASIGDRVTITCRASENIYGNLAWYQQKPGKAPKLLISRASRLASGAPSRFSGSGSGTDFTLTISSLQPDDFATYYCQQRYTYPLTFGGGTKLEIK 1.8

Assign IC50 to the following record: 25C6 bivalent scFv on phage (scFv, V domains shown) VH: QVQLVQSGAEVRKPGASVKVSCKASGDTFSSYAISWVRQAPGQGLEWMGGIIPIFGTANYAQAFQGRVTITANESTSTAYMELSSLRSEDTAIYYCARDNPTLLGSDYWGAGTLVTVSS VL: DIQMTQSPSTLSASIGDRVTITCRASENISSRLAWYQQKPGKAPKLLISNAYHLASGAPSRFSGSGSGTDFTLTISSLQPDDFATYYCQQRSNYPHTFGGGTKLEIK 32

Assign IC50 to the following record: 25B6 bivalent scFv on phage (scFv, V domains shown) VH: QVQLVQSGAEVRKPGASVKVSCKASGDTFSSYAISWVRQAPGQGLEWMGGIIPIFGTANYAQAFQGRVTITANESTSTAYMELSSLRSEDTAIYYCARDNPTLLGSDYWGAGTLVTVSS VL: DIQMTQSPSTLSASIGDRVTITCRASENIRSGLAWYQQKPGKAPKLLIYRASRLASGAPSRFSGSGSGTDFTLTISSLQPDDFATYYCQQYDDYPHTFGGGTKLEIK 0.3
